assayed_system: IGF-1R (Homo sapiens)
Construct: expressed in transfected cells
Sequence (P08069 31-1367): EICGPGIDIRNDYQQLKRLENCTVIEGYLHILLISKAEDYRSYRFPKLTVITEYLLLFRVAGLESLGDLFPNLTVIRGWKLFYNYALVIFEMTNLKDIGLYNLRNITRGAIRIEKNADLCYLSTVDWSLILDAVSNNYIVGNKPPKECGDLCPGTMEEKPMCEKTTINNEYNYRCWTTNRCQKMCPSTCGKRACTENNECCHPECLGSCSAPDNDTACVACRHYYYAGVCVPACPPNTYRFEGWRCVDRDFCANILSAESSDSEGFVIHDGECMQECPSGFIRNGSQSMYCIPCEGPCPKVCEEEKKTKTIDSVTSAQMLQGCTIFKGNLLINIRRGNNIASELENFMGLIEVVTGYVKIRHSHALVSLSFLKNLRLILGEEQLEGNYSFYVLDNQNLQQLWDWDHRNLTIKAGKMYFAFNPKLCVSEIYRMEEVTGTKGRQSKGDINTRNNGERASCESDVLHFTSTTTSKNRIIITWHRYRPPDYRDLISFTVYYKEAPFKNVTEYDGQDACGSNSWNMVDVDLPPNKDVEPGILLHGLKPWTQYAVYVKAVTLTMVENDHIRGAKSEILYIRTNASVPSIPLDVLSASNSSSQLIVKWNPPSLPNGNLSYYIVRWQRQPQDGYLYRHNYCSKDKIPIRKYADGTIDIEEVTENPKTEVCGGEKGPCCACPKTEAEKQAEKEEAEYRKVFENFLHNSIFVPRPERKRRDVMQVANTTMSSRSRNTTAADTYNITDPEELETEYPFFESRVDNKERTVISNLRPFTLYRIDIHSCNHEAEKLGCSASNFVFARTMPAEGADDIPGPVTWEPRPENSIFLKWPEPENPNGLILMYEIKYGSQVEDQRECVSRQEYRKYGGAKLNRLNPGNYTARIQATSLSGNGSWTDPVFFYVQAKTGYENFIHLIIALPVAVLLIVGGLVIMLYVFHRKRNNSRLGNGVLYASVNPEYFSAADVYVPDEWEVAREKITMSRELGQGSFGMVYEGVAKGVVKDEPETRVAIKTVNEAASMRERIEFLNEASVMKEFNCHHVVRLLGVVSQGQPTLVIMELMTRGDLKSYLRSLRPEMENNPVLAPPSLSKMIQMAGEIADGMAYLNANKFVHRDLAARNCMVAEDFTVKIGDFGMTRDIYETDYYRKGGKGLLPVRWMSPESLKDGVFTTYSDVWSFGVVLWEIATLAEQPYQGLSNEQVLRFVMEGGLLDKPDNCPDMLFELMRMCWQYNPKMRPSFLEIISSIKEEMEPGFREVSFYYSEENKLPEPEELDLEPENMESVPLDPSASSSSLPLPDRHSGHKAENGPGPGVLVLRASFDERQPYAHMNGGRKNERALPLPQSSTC
assay_procedure: Example B-2: IGF-1R Assay (PathHunter cell lines, EC80 agonist challenge, chemiluminescent detection)
Type: cell-based
condition_context: PathHunter cells, compound 60 minutes at 37° C., EC80 agonist 3 hours; read-out: IC50, Biological Activity against IGF-1R (Table B2)
observation_type: IC50

Previously resolved entries follow.
>  <compound>
CC1(C)C(=O)N(c2ccc(C3(C(F)(F)F)CC3)cc2)C(=O)N1Cc1ccnc2c1CCC(=O)N2 [Compound 38]

>  <experimental_value>
≤ 500 nM

$$$$
>  <compound>
CC1(C)C(=O)N(c2ccc3c(c2)N(S(C)(=O)=O)CC32CC2)C(=O)N1Cc1ccnc(N[C@H]2CCOC2)c1 [Compound 223]

>  <experimental_value>
≤ 500 nM

$$$$

Input: What does the record list as IC50 for C[C@@H](CC#N)Nc1cc(CN2C(=O)N(c3cc(C(C)(C)C)nn3C)C(=O)C2(C)C)ccn1 [Compound 262] ?
Output: > 10000 nM

Input: What does the record list as IC50 for CC1(C)C(=O)N(c2ccc(C3(C#N)CC3)c(F)c2)C(=O)N1Cc1ccnc2c1CC(=O)N2 [Compound 71] ?
Output: 500 to 2000 nM

Input: What does the record list as IC50 for CC1(C)C(=O)N(c2ccc(OC(F)(F)F)c(NS(C)(=O)=O)c2)C(=O)N1Cc1ccnc2c1CC(=O)N2 [Compound 283] ?
Output: > 10000 nM

Input: What does the record list as IC50 for CC1(C)C(=O)N(c2ccc(C3(C(F)(F)F)CC3)cc2)C(=O)N1Cc1ccnc2c1OC[C@@H](CC#N)N2 [Compound 56] ?
Output: ≤ 500 nM

###

assayed_system: IGF-1R (Homo sapiens)
Construct: expressed in transfected cells
assay_procedure: Example B-1: IGF-1R Assay (PC3 cells stimulated with IGF1, AlphaLISA on cell lysates)
Assay type: cell-based
condition_context: compound two hours, IGF1 200 ng/mL for 30 min, read-out: IC50, Biological Activity against IGF-1R (Table B1)
Measured IC50, listed per entry for reference.

>  <compound>
CC1(C)C(=O)N(c2ccc(SC(F)(F)F)cc2)C(=O)N1Cc1ccnc(NC(=O)Nc2ccncc2)c1 [Compound 398]

>  <IC50>
≤ 500 nM

$$$$
>  <compound>
CC(C)Nc1cc(CN2C(=O)N(c3ccc(C4(C)CCC4)cc3)C(=O)C2(C)C)ccn1 [Compound 101]

>  <IC50>
≤ 500 nM

$$$$
>  <compound>
COCC(C)Nc1cc(CN2C(=O)N(c3ccc(C(C)(C)C)cc3)C(=O)C2(C)C)ccn1 (stereo not drawn) [Compound 265]

>  <IC50>
≤ 500 nM

$$$$
>  <compound>
CC1(C)C(=O)N(c2ccc(-c3nccs3)cc2)C(=O)N1Cc1ccnc(N)c1 [Compound 81]

>  <IC50>
2000 to 10000 nM

$$$$
>  <compound>
CC(c1ccnc(NC2CCOCC2)c1)N1C(=O)N(c2ccc(C3(C(F)(F)F)CC3)cc2)C(=O)C1(C)C (stereo not drawn) [Compound 134]

>  <IC50>
≤ 500 nM

$$$$

Input: What does the record list as IC50 for CC1(C)C(=O)N(c2ccc(SC(F)(F)F)cc2)C(=O)N1Cc1ccnc2[nH]ccc12 [Compound 1] ?
Output: ≤ 500 nM

Input: What does the record list as IC50 for C[C@@H](CC#N)Nc1cc(CN2C(=O)N(c3ccc(C(C)(C)C)cc3)C(=O)C2(C)C)ccn1 [Compound 278] ?
Output: ≤ 500 nM

Input: What does the record list as IC50 for Nc1cc(CN2C(=O)N(c3ccc(SC(F)(F)F)cc3)C(=O)[C@@H]2Cc2ccccc2)ccn1 [Compound 289] ?
Output: 500 to 2000 nM

Input: What does the record list as IC50 for CC1(C)C(=O)N(c2ccc(S(=O)(=O)C(F)(F)F)cc2)C(=O)N1Cc1ccnc(NCC(F)F)c1 [Compound 317] ?
Output: ≤ 500 nM

Input: What does the record list as IC50 for CC(C)Nc1cc(CN2C(=O)N(c3ccc4c(c3)N(C)C(=O)C43CC3)C(=O)C2(C)C)ccn1 [Compound 185] ?
Output: 2000 to 10000 nM

Input: What does the record list as IC50 for CC1(C)Cc2cc(CN3C(=O)N(c4ccc(SC(F)(F)F)cc4)C(=O)C3(C)C)cnc2N1 [Compound 14] ?
Output: > 10000 nM

Input: What does the record list as IC50 for CC1(C)C(=O)Nc2nccc(CN3C(=O)N(c4ccc(SC(F)(F)F)cc4)C(=O)C3(C)C)c21 [Compound 19] ?
Output: ≤ 500 nM

Input: What does the record list as IC50 for CC1(C)CNc2ncc(CN3C(=O)N(c4ccc(SC(F)(F)F)cc4)C(=O)C3(C)C)cc21 [Compound 405] ?
Output: 2000 to 10000 nM

Input: What does the record list as IC50 for CC(C)Nc1cc(CN2C(=O)N(c3ccc(C4CC4(C)C)cc3)C(=O)C2(C)C)ccn1 (stereo not drawn) [Compound 108] ?
Output: ≤ 500 nM

Input: What does the record list as IC50 for CC(C)(C)c1ccc(N2C(=O)N(Cc3ccnc(NC4COC4)c3)C(C)(C)C2=O)cc1 [Compound 275] ?
Output: ≤ 500 nM

Input: What does the record list as IC50 for CC(C)Nc1cc(CN2C(=O)N(c3ccc4c(c3)N(C)C(=O)C4(C)C)C(=O)C2(C)C)ccn1 [Compound 111] ?
Output: 2000 to 10000 nM

Input: What does the record list as IC50 for CC1(C)C(=O)N(c2ccc(SC(F)(F)F)cc2)C(=O)N1Cc1ccnc(NC(=O)NC23CCC(CC2)C3)c1 [Compound 304] ?
Output: 500 to 2000 nM

Input: What does the record list as IC50 for Cc1ccc(NC(=O)Nc2cc(CN3C(=O)N(c4ccc(SC(F)(F)F)cc4)C(=O)C3(C)C)ccn2)cc1 [Compound 371] ?
Output: ≤ 500 nM

Input: What does the record list as IC50 for CC1(Nc2cc(CN3C(=O)N(c4ccc(C5(C(F)(F)F)CC5)cc4)C(=O)C3(C)C)ccn2)CC1 [Compound 138] ?
Output: ≤ 500 nM

Input: What does the record list as IC50 for CC(C)Nc1cc(CN2C(=O)N(c3ccc(C45CC(C4)C5)cc3)C(=O)C2(C)C)ccn1 [Compound 117] ?
Output: ≤ 500 nM

Input: What does the record list as IC50 for CC(C)Nc1cc(CN2C(=O)N(c3ccc(SC(F)(F)F)cc3)C(=O)C2(C)C)c(F)cn1 [Compound 384] ?
Output: ≤ 500 nM
